# target.entity: Alkaline phosphatase, tissue-nonspecific isozyme (Homo sapiens) (UniProt P05186)
# Sequence (P05186 whole entry, looked up): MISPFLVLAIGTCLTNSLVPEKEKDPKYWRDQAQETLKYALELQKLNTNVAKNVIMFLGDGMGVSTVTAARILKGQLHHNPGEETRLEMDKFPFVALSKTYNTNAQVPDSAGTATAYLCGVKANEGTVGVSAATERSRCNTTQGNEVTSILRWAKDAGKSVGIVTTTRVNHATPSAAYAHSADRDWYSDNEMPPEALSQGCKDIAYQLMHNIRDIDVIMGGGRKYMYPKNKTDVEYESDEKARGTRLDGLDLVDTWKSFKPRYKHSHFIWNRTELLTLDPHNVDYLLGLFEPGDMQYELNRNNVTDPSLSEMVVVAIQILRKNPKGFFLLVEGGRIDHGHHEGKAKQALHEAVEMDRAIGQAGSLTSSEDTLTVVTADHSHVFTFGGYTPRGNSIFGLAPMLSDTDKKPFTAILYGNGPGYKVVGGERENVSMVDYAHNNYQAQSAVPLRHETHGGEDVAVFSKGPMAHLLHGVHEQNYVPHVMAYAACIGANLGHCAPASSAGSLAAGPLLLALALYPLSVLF
# method.notes: human TNAP enzyme inhibitors, primary screen, biochemical, luminescent, high phosphate acceptor level, uHTS (AID 1135);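 note: plate controls were DMSO wells for no effect and EDTA-quenched wells as full inhibition for full effect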
# experimental.conditions: purified TNAP, CDP-star luminescence, 1 M DEA; at 20 µM; stronger effect = higher value
In all, about 200,000 compounds went through this assay and about 65 (0.03%) were called active. Many of the other results were omitted from the sample, so actives are more common in it than they were.

{"columns": ["molecule", "inhibition [%]"],
 "data": [
  ["Cn1cnnc1Sc1ccc(S(C)(=O)=O)cc1[N+](=O)[O-]", 3.1],
  ["O=C1CCC/C(=N\\NC(=O)NC2CCCCC2)C1", 3.6],
  ["COc1cc(C(=O)Nc2cc(C(F)(F)F)ccc2-n2cncn2)cc(OC)c1OC", -1.7],
  ["CCOCCCNC(=O)C(NC(=O)Cc1c[nH]c2ccccc12)c1ccc(OC)cc1 (stereo unspecified)", 2.4],
  ["COc1cc(C2OC(c3cc(OC)c(OC)c(OC)c3)C(C)C2C)cc(OC)c1OC (stereo unspecified)", -2.4],
  ["CCOC(=O)C1C(c2ccc(Cl)cc2)NC(=S)NC1(O)C(F)(F)F (stereo unspecified)", 4.4],
  ["S=C(NCCc1ccccc1)NCC1CCCO1 (stereo unspecified)", -0.7],
  ["Cc1cc(C)c(NC(=O)c2oc3ccccc3c2COc2ccccc2)c(C)c1", 0.7],
  ["CC/C(Cc1ccccc1)=N/NC(=O)CCn1nnc2ccccc21", -4.6],
  ["c1ccc2c(NC3C4CC5CC(C4)CC3C5)nc(N3CCOCC3)nc2c1 (stereo unspecified)", -4.8],
  ["S=C(NCC1CCCO1)N1CCN(c2ccc(Cl)c(Cl)c2)CC1 (stereo unspecified)", -1.7]
]}

---

# target.entity: Alkaline phosphatase, tissue-nonspecific isozyme (Homo sapiens)
# method.notes: human TNAP enzyme inhibitors, primary screen, biochemical, luminescent, high phosphate acceptor level, uHTS (AID 1135);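 note: plate controls were DMSO wells for no effect and EDTA-quenched wells as full inhibition for full effect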
# experimental.conditions: purified TNAP, CDP-star luminescence, 1 M DEA; at 20 µM
In all, about 200,000 compounds went through this assay and about 65 (0.03%) were called active.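 The calls were made as follows: active = over 50% inhibition of tissue-nonspecific alkaline phosphatase at 20 µM in the single-dose screen; inactive = the rest.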 The sample as a whole holds a higher share of actives than the screen did.
Possible outcomes: yes (1) (active), no (0) (inactive)

{"columns": ["compound", "assigned.category"],
 "data": [
  ["COc1cccc(C(=O)Oc2cc(C)[nH]c(=O)c2[N+](=O)[O-])c1", "no (0)"],
  ["CCN(CC)CCN(C(=O)c1ccc(N2C(=O)CCC2=O)cc1)c1nc2cc3c(cc2s1)OCO3", "no (0)"],
  ["O=[N+]([O-])c1ccc(N/N=C2/CCCCC2c2ccccn2)c([N+](=O)[O-])c1 (configuration not stated)", "no (0)"],
  ["COCCN(CCOC)S(=O)(=O)c1ccc(/C(O)=C(\\C#N)c2nc3ccccc3[nH]2)cc1", "no (0)"],
  ["C/C(=N/NC(=O)CSc1ccccn1)c1ccc([N+](=O)[O-])cc1", "no (0)"],
  ["C=CCNc1nc(Nc2ccc(Cl)cc2)nc(OC)n1", "no (0)"],
  ["COc1cccc(C2CC(c3ccccc3)=NN2S(=O)(=O)c2ccccc2)c1OC (configuration not stated)", "no (0)"],
  ["Cc1no[n+]([O-])c1COc1ccccc1/C=C1\\NC(=S)NC1=O", "no (0)"],
  ["CCS(=O)(=O)C1=NSC2=NC(=O)/C(=C\\c3cc(C)n(-c4cccc(OC)c4)c3C)C(=N)N21", "no (0)"],
  ["CCOc1ccc(C(c2c(C)[nH][nH]c2=O)c2c(C)[nH][nH]c2=O)cc1OCC", "yes (1)"],
  ["O=C(N/N=C/c1ccc([N+](=O)[O-])cc1)C(=O)N1CCCC1", "no (0)"],
  ["CCNC(=O)CC1C(=O)N(c2ccc(F)cc2)C(=O)N1CCc1sccc1C (configuration not stated)", "no (0)"],
  ["O=C(CC1SC(=Nc2ccccc2)N(Cc2ccccn2)C1=O)Nc1cccc(Cl)c1 (configuration not stated)", "no (0)"],
  ["O=C(/C=C/c1ccc(F)cc1)NC(=S)NNC(=O)c1cccnc1", "no (0)"],
  ["C=CCNc1scc(-c2ccccc2)[n+]1CC=C", "no (0)"],
  ["O=C(Oc1c(-c2ccco2)oc2ccccc2c1=O)c1cccnc1", "no (0)"],
  ["O=C(COc1ccccc1)Nc1ccc(N2CCN(C(=O)c3cccs3)CC2)cc1", "no (0)"],
  ["O=C(Nc1ccc(N2CCOCC2)cc1)c1ccc(-c2ccccc2[N+](=O)[O-])o1", "no (0)"],
  ["O=C(C(=O)N1CCc2ccccc2C1)c1c[nH]c2ccccc12", "no (0)"],
  ["Cc1ccc(NC(=O)c2sccc2C)cc1[N+](=O)[O-]", "no (0)"],
  ["COc1cccc(OC)c1C(=O)OCC(=O)/C(C#N)=C(\\C)N", "no (0)"],
  ["COc1ccc(NC(=S)NCCN2CCC(C)CC2)cc1", "no (0)"]
]}
